Source of measurements: paper PMC10999543

Listing: cell count rep 1 of selected compounds
Tested on: HeLa cells
Assay details: Compound screen by flow cytometry: HeLa cell count as surrogate readout of cell viability (z-scoreHeLa)
Assay type: cell-based, human
Condition notes: PKIS compound screen raw data, HeLa cell count, replicate 1
Output spec: single numeric token, no unit.

Consider the reported cell count rep 1 for these compounds:
COc1cc2c(Nc3cccc(NC(=O)c4ccccc4)c3)ncnc2cc1OCCCN1CCOCC1 [GSK223810A] | 28720
COc1cccc(NC(=O)NCCNc2ccnc(Nc3ccc(F)cc3)n2)c1 [GSK1379879A] | 4370
Cc1c2ccc(N(C)c3ccnc(Nc4cccc(S(N)(=O)=O)c4)n3)cc2nn1Cc1ccccc1 [GW787226A] | 1356

Find cell count rep 1 for COc1ccc(S(=O)(=O)NC2CCN(c3cc(C)nc(Nc4cccc(C#N)c4)n3)CC2)cc1 [GSK1653539A] on HeLa cells and write it down.
25166

Recall the reported cell count rep 1 of Cc1cc(N2Cc3ccccc3C2)nc(Nc2ccc(S(=O)(=O)N3CCOCC3)cc2)n1 [GSK1669917A] on HeLa cells and write it down.
5559

Under HeLa cells, report cell count rep 1 for COC(=O)c1cccc(NC(=O)NC2CCN(c3ccnc(Nc4ccc(OC)cc4)n3)C2)c1 (stereo not shown) [GSK1379746A]
24857

Retrieve cell count rep 1 on HeLa cells; query Cc1cccc(-c2nc(Nc3ccncc3)c3ccccc3n2)n1 [GW855857X]
3133

Recall the reported cell count rep 1 of Fc1cc(Cl)ccc1Nc1ccnc2cc(I)ccc12 [GW551191X] on HeLa cells and write it down.
6255

Give cell count rep 1 for c1ccc(-c2cc3ccncc3cc2OC2CCNCC2)cc1 [GSK1122999D] tested on HeLa cells.
28278

Under HeLa cells, report cell count rep 1 for [O-][S+]1CCN(Cc2ccc(-c3ccc4ncnc(Nc5ccc(OCc6cccc(F)c6)c(Cl)c5)c4c3)o2)CC1 [GW576609A]
27921

// fetch cell count rep 1 for Cn1cc(-c2ccc3c(c2)CCN3C(=O)Cc2cc(F)cc(C(F)(F)F)c2)c2c(N)ncnc21 [GSK2635225A] ; system: HeLa cells
4783

Look up HeLa cells data: cell count rep 1 of CC(C)c1nc(-c2cccc(NS(=O)(=O)c3c(F)cccc3F)c2F)c(-c2ccnc(Nc3ccc(N4CCOCC4)nc3)n2)s1 [GSK2008607A] , then report it.
21178

Look up and report cell count rep 1, with HeLa cells as system, for O=C(c1ccc(-c2cc(-c3c[nH]nc3-c3ccccn3)ccn2)cc1)N1CCCC1 [GW792479X]
29405

----------
System: HeLa cells
Assay details: Compound screen by flow cytometry: HeLa cell count as surrogate readout of cell viability (z-scoreHeLa)
Format: cell-based, human
Condition notes: PKIS compounds raw data; replicate 1; HeLa cell count
Readout: cell count rep 1
Number only, please.

COc1cc(Nc2ncc3c(C)nc(-c4cc5ccccc5[nH]4)n3n2)cc(OC)c1OC [GW869516X] | 8188
COc1cc(Nc2nccc(N3CCC(NC(=O)C(C)c4ccc(Cl)cc4)C3)n2)cc(OC)c1OC (stereo not drawn) [GSK1379757A] | 6143

For the next question, use this molecule.
Provide only the value of recorded cell count rep 1 for CN(C)C(=O)O[C@@H]1CN[C@@H](C#Cc2cc3ncnc(Nc4ccc(OCc5cccc(F)c5)c(Cl)c4)c3s2)C1 [GSK238063A]
3194

----------
Tested on: HeLa cells
Assay details: Compound screen by flow cytometry: HeLa cell count as surrogate readout of cell viability (z-scoreHeLa)
Type: cell-based, human
Condition notes: PKIS compounds raw data; replicate 2; HeLa cell count
Method: The cells were resuspended in cell culture medium without antibiotics, seeded with 10,000 cells/well into Costar flat-bottom 96-well plates (Corning, Amsterdam, the Netherlands), and were incubated overnight at 37°C/5% CO2. […] The calculated mean MOI throughout all experiments was 6.8 ± 4.6 (mean ± SD). […] HeLa cells were harvested by trypsinization and fixed with 1% paraformaldehyde. Samples were measured on a FACSLyric with HTS extension (BD Biosciences). […]
Response field label takes 1 (yes) when cell count rep 2 is strictly below 4000 and 0 (no) in all other cases.

Solved cases (2 shown):
COc1cccc(-n2ncc3c(N/N=C/c4ccncc4)ncnc32)c1 [GW784752X] | 1 (yes)
Cl.Cl.Cl.Fc1ccc(-c2ncn(C3CCNCC3)c2-c2ccnc(Nc3ccccc3)n2)cc1 [SB-238039-R] | 1 (yes)

Does CCn1cc(-c2ccnc3[nH]ccc23)c(-c2cccc(NC(=O)Nc3ccc(OCc4ccccc4)cc3)c2)n1 [GSK718429A] have cell count rep 2 strictly under 4000?
1 (yes)

Take the molecule c1ccc(COc2ccc(Nc3ncnc4ccc(-c5ccco5)cc34)cc2)cc1 [GW284372X] and say whether its cell count rep 2 is less than 4000.
0 (no)

Consider the molecule Cn1cc(-c2cnc(N)c3c(-c4ccc5c(c4)CCN5C(=O)Cc4ccccc4)csc23)cn1 [GSK2593074A] . Is its cell count rep 2 strictly less than 4000?
1 (yes)

# strict comparison: is reported cell count rep 2 < 4000? input = O=S(=O)(CCNCc1ccc(-c2ccc3ncnc(Nc4ccc(OCc5cccc(F)c5)c(Cl)c4)c3c2)o1)c1ccccc1 [GW633459A]
0 (no)

Identify whether the molecule Cc1cccc(-c2nc(Nc3ccc4ncsc4c3)c3ccccc3n2)n1 [GW867588X] records cell count rep 2 below 4000.
0 (no)

----------
z-scoreMRSA+ rep 2 listing for selected compounds.
Test system: intracellular MRSA
Type: cell-based, Staphylococcus aureus
Condition notes: compound screen, MRSA-infected HeLa cells, replicate 2
Method: The cells were resuspended in cell culture medium without antibiotics, seeded with 10,000 cells/well into Costar flat-bottom 96-well plates (Corning, Amsterdam, the Netherlands), and were incubated overnight at 37°C/5% CO2. […] The calculated mean MOI throughout all experiments was 6.8 ± 4.6 (mean ± SD). […] HeLa cells were harvested by trypsinization and fixed with 1% paraformaldehyde. Samples were measured on a FACSLyric with HTS extension (BD Biosciences). […]
Hey, just send me the number, nothing else.

Reference set, count: 5
Nc1nc(-c2ccc3c(c2)C(=Cc2cc(Br)c(O)c(Br)c2)C(=O)N3)cs1 [GW407323A] | 0.0015
O=C(NCCNc1ccnc(Nc2ccc(F)cc2)n1)Nc1ccccc1F [GSK1379880A] | -0.25
COc1cccc(NC(=O)NCCNc2ccnc(Nc3ccc(F)cc3)n2)c1 [GSK1379879A] | -0.15
Cn1cc(-c2cnc(N)c3c(-c4ccc5c(c4)CCN5C(=O)Cc4ccccc4)csc23)cn1 [GSK2593074A] | 2.64
Nc1ncc(-c2cccc(S(N)(=O)=O)c2)c2scc(-c3ccc(F)c(Cl)c3)c12 [GW856804X] | -0.40

Specify z-scoreMRSA+ rep 2 for Nc1ncc(-c2ccncc2)c2scc(-c3ccc4c(c3)CCN4C(=O)Cc3ccccc3)c12 [GSK2592465A] and stop.
0.58

Specify reported z-scoreMRSA+ rep 2 for the compound shown: Nc1ncnc2occ(-c3ccc(NC(=O)Nc4cc(C(F)(F)F)ccc4F)cc3)c12 [GW770249X]
-0.67

Provide one value: measured z-scoreMRSA+ rep 2 of COc1ccccc1-c1cc(/C=C2\C(=O)Nc3ncc(Br)cc32)cc(Br)c1O [GW442130X]
0.97

Tell me its z-scoreMRSA+ rep 2 given CS(=O)(=O)CCNCc1nc(-c2ccc3ncnc(Nc4ccc(OCc5cccc(F)c5)c(Cl)c4)c3c2)cs1 [GW583340C] as the entry.
-1.85

Return z-scoreMRSA+ rep 2 (reported value) for this compound: COc1cc(C=NNc2ncnc3c2cnn3-c2ccccc2)ccc1O [GW513184X]
-0.0654

Hello, please tell me recorded z-scoreMRSA+ rep 2 for this one: O=C(Nc1ccc(Oc2ccc3nc(NC(=O)c4ccco4)[nH]c3c2)cc1)Nc1cc(C(F)(F)F)ccc1F [GW683134A]
-2.24

----------
System: HeLa cells
Assay details: Compound screen by flow cytometry: HeLa cell count as surrogate readout of cell viability (z-scoreHeLa)
Assay type: cell-based, human
Condition notes: compound screen, HeLa cell count, replicate 3
Readout: z-scoreHeLa rep 3

CN(C)C(=O)O[C@@H]1CN[C@@H](C#Cc2cc3ncnc(Nc4ccc(OCc5cccc(F)c5)c(Cl)c4)c3s2)C1 [GSK238063A] | -1.16
Nc1ncnc2occ(-c3ccc(NC(=O)Nc4cc(C(F)(F)F)ccc4F)cc3)c12 [GW770249X] | -1.77

Please list z-scoreHeLa rep 3 recorded for the molecule O=S(=O)(c1cccc(F)c1)c1ccc(Nc2ncnc3cc(Br)sc23)cc1Cl [GSK306886A]
-0.89

Give the reported z-scoreHeLa rep 3 for this molecule. Fc1cccc(COc2ccc(Nc3ncnc4cc(-c5ccc[nH]5)sc34)cc2Cl)c1 [GW693881A]
0.04

Query z-scoreHeLa rep 3 for COC(=O)Nc1nc2ccc(Oc3ccc(NC(=O)Nc4cc(C(F)(F)F)ccc4Cl)cc3)cc2[nH]1 [GW697465A]
0.12

Using the record for Nc1ncc(-c2ccncc2)c2scc(-c3ccc4c(c3)CCN4C(=O)Cc3ccccc3)c12 [GSK2592465A] , state its measured z-scoreHeLa rep 3.
0.10

Hello, please tell me recorded z-scoreHeLa rep 3 for this one: Cc1cccc(-c2nc(Nc3ccc4[nH]ncc4c3)c3ccccc3n2)n1 [GW857175X]
-1.88

Name the recorded z-scoreHeLa rep 3 of the item CC(C)c1ccc2c(c1)NC(=O)C2=NNc1ccc(S(N)(=O)=O)cc1 [GW300653X] in your answer.
-0.56
